Target: ATP-dependent translocase ABCB1 (Homo sapiens, UniProt P08183)
Sequence (P08183 whole entry): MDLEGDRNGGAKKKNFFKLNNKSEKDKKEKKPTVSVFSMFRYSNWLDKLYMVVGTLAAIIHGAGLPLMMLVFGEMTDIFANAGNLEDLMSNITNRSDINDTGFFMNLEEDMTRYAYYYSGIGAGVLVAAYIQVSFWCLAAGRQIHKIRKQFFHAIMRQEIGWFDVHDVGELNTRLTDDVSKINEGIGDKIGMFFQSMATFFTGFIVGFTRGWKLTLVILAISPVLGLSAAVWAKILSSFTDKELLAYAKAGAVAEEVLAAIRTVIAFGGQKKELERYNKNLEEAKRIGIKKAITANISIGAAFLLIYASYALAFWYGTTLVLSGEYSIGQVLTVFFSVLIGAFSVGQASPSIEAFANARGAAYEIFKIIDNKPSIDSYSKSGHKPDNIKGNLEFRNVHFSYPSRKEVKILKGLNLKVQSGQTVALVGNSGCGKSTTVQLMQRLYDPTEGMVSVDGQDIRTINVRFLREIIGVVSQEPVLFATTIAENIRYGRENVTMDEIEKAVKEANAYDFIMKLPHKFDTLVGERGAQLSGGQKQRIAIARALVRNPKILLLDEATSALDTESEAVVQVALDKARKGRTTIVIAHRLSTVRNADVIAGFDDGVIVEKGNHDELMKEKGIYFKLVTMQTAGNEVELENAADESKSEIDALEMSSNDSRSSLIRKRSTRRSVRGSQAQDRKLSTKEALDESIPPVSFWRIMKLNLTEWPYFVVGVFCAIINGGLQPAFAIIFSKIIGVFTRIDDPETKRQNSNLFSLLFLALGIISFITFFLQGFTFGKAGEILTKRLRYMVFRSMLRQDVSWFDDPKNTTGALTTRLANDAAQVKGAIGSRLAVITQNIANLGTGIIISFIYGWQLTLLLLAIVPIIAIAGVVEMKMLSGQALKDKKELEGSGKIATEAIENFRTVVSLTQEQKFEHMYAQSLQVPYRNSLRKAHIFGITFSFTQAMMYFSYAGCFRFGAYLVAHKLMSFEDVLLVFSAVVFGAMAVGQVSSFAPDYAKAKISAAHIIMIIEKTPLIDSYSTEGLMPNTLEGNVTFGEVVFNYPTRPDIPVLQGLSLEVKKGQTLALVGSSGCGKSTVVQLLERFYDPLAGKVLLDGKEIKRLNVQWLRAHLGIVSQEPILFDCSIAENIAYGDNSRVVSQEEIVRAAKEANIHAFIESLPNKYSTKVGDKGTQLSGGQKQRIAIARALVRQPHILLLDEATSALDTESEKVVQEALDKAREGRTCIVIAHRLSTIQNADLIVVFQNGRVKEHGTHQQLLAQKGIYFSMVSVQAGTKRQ
Assay: Inhibition of ABCB1 in human K562/A02 cells assessed as potentiation of adriamycin-induced cytotoxicity by measuring reduction in ADR IC50 at 5 uM measured after 48 hrs by MTT assay relative to ADR alone
Assay type: cell-based
Measured fold change (FC), listed per entry.
Reply with the value as a number alone.

>>> val("COc1ccc(NC(=O)c2ccccc2OCc2cn(CCN3CCc4cc(OC)c(OC)cc4C3)nn2)cc1")
11.6

[in] Please give the measured fold change (FC) for this compound: COc1cc2c(cc1OC)CN(CCn1cc(COc3ccccc3C(=O)Nc3cccc([N+](=O)[O-])c3)nn1)CC2
[out] 3.5

[in] What measured fold change (FC) goes with CCCCc1ccc(NC(=O)c2ccccc2OCc2cn(CCN3CCc4cc(OC)c(OC)cc4C3)nn2)cc1 ?
[out] 15.5

[in] Fill in the blank: the reported fold change (FC) of COc1cc2c(cc1OC)CN(CCn1cc(COc3ccccc3C(=O)Nc3ccccc3)nn1)CC2 is ____.
[out] 3.8

Origin of measurements: ChEMBL document CHEMBL4052700
